# System: Melanoma cancer cell lines
# Test Method Notes: NCI anticancer screen, SRB assay, panel summary
# Type: cell-based, human
# Reported Conditions: Homo sapiens; Melanoma panel; log of concentration in mol/L causing 50% inhibition of net cell growth; read-out: mean graph midpoint (MG_MID) of Log10 GI50 (converted)
Measure Name: GI50 (nM)
One number for each entry, in nM.

Use the examples below as a reference point.
Compound | Measurement Units | GI50
COc1cc(/C=C/C(=O)c2cccc(-n3cc(-c4cc(OC)c(OC)c(OC)c4)[nH]c3=O)c2)cc(OC)c1OC [5d] | nM | 2040
O=C(/C=C/c1cccc(O)c1)c1cccc(-n2cc(-c3ccc4ccccc4c3)[nH]c2=O)c1 [12b] | nM | 1950

For each of the compounds below, state GI50.
1. COc1ccc(-c2cn(-c3cccc(C(=O)/C=C/c4ccc(O)c(OC)c4)c3)c(=O)[nH]2)cc1 [3b]
2. COc1cc(/C=C/C(=O)c2cccc(-n3cc(-c4ccccc4)[nH]c3=O)c2)ccc1O [3a]

Data returned:
1. 4070
2. 2570

###

For each of the compounds below, state its mean graph midpoint (MG_MID) of Log10 LC50.
# System: Colon cancer cell lines
# Test Method Notes: NCI anticancer screen, SRB assay, panel summary
# Assay type: cell-based, human
# Reported Conditions: Colon panel; log of concentration leading to 50% net cell death
One number for each entry.

Solved cases below.
Compound | Target Of Assay | Result Number
O=C(/C=C/c1cccc(O)c1)c1cccc(-n2cc(-c3ccc4ccccc4c3)[nH]c2=O)c1 [12b] | Colon cancer cell lines | 5.08
COc1cc(/C=C/C(=O)c2cccc(-n3cc(-c4ccccc4)[nH]c3=O)c2)cc(OC)c1OC | Colon cancer cell lines | 5.23
COc1cc(/C=C/C(=O)c2cccc(-n3cc(-c4ccc(Cl)cc4)[nH]c3=O)c2)ccc1O | Colon cancer cell lines | 4.53

Next item in the queue.
Data request: Name the recorded mean graph midpoint (MG_MID) of Log10 LC50 for COc1cc(/C=C/C(=O)c2cccc(-n3cc(-c4ccc(Cl)cc4)[nH]c3=O)c2)cc(OC)c1OC .
Data returned: 4.76

###

# Tested on: HOP-62 (non-small cell lung)
# Test Method Notes: NCI anticancer screen, SRB assay, 48 h
# Assay type: cell-based, human
# Reported Conditions: Homo sapiens, 48 h exposure, SRB, read-out: GI50
Measure Name: GI50 (nM)
Answers are plain numbers, in nM.

Here is how some compounds turned out for GI50.
Compound | Measurement Units | GI50
COc1ccc(-c2cn(-c3cccc(C(=O)/C=C/c4ccc(O)c(OC)c4)c3)c(=O)[nH]2)cc1 [3b] | nM | 5150
O=C(/C=C/c1cccc(O)c1)c1cccc(-n2cc(-c3ccc4ccccc4c3)[nH]c2=O)c1 [12b] | nM | 2260
O=C(/C=C/c1cccc(O)c1)c1cccc(-n2cc(-c3ccc(Cl)cc3)[nH]c2=O)c1 [4f] | nM | 2360
COc1cc(/C=C/C(=O)c2cccc(-n3cc(-c4ccccc4)[nH]c3=O)c2)cc(OC)c1OC [5a] | nM | 4120

Go through the items and report each one's GI50.
1. COc1cc(/C=C/C(=O)c2cccc(-n3cc(-c4ccccc4)[nH]c3=O)c2)ccc1O [3a]
2. COc1cc(/C=C/C(=O)c2cccc(-n3cc(-c4cc(OC)c(OC)c(OC)c4)[nH]c3=O)c2)cc(OC)c1OC [5d]

Data returned:
[1480, 3080]

For the 2 compounds below, give their GI50 values.
1. O=C(/C=C/c1cccc(O)c1)c1cccc(-n2cc(-c3ccccc3)[nH]c2=O)c1 [4a]
2. COc1cc(/C=C/C(=O)c2cccc(-n3cc(-c4ccc(Cl)cc4)[nH]c3=O)c2)ccc1O [3f]

Data returned:
1. 6930
2. 2840

###

Record form. Attribute: GI50. Fill in for each entry.
# Tested on: UACC-257 (melanoma)
# Test Method Notes: NCI anticancer screen, SRB assay, 48 h
# Type: cell-based, human
# Reported Conditions: Homo sapiens, 48 h exposure, SRB, read-out: GI50
Numbers only, in µM.

# annotated cases, reported GI50 shown
Given Smiles | Measure Name | Result Number
COc1cc(/C=C/C(=O)c2cccc(-n3cc(-c4ccc(Cl)cc4)[nH]c3=O)c2)ccc1O | GI50 | 8.69
COc1cc(/C=C/C(=O)c2cccc(-n3cc(-c4cc(OC)c(OC)c(OC)c4)[nH]c3=O)c2)cc(OC)c1OC | GI50 | 2.22
O=C(/C=C/c1cccc(O)c1)c1cccc(-n2cc(-c3ccccc3)[nH]c2=O)c1 | GI50 | 7.68

Now turn to the next compound.
Data request: Please report the recorded GI50 for COc1cc(/C=C/C(=O)c2cccc(-n3cc(-c4ccccc4)[nH]c3=O)c2)ccc1O .
Data returned: 6.81

###

# Test system: U251 (CNS)
# Test Method Notes: NCI anticancer screen, SRB assay, 48 h
# Type: cell-based, human
# Reported Conditions: Homo sapiens, U-251, 48 h exposure, SRB, read-out: GI50
For each of the molecules below, state its GI50.
Numbers only, in µM.

Recorded results for 2 molecules are shown here.
Molecule | Measurement Units | GI50
COc1cc(/C=C/C(=O)c2cccc(-n3cc(-c4ccc(Cl)cc4)[nH]c3=O)c2)ccc1O [3f] | µM | 2.23
COc1ccc(-c2cn(-c3cccc(C(=O)/C=C/c4ccc(O)c(OC)c4)c3)c(=O)[nH]2)cc1 [3b] | µM | 3.45

// for each molecule below, give its GI50
1. COc1cc(/C=C/C(=O)c2cccc(-n3cc(-c4ccccc4)[nH]c3=O)c2)ccc1O [3a]
2. O=C(/C=C/c1cccc(O)c1)c1cccc(-n2cc(-c3ccccc3)[nH]c2=O)c1 [4a]
3. COc1cc(/C=C/C(=O)c2cccc(-n3cc(-c4cc(OC)c(OC)c(OC)c4)[nH]c3=O)c2)cc(OC)c1OC [5d]
4. O=C(/C=C/c1cccc(O)c1)c1cccc(-n2cc(-c3ccc(Cl)cc3)[nH]c2=O)c1 [4f]
5. O=C(/C=C/c1cccc(O)c1)c1cccc(-n2cc(-c3ccc4ccccc4c3)[nH]c2=O)c1 [12b]
6. COc1cc(/C=C/C(=O)c2cccc(-n3cc(-c4ccccc4)[nH]c3=O)c2)cc(OC)c1OC [5a]

Data returned:
[2.11, 1.61, 1.23, 0.58, 1.09, 0.63]

###

For each record, write down the corresponding mean graph midpoint (MG_MID) of Log10 LC50.
# System: Colon cancer cell lines
# Test Method Notes: NCI anticancer screen, SRB assay, panel summary
# Format: cell-based, human
# Reported Conditions: Colon panel; log of concentration leading to 50% net cell death

Observe how each entry below is paired with its result.
Compound | Target Of Assay | Result
COc1cc(/C=C/C(=O)c2cccc(-n3cc(-c4ccccc4)[nH]c3=O)c2)ccc1O [3a] | Colon cancer cell lines | 4.68
COc1cc(/C=C/C(=O)c2cccc(-n3cc(-c4cc(OC)c(OC)c(OC)c4)[nH]c3=O)c2)cc(OC)c1OC [5d] | Colon cancer cell lines | 4.19
O=C(/C=C/c1cccc(O)c1)c1cccc(-n2cc(-c3ccccc3)[nH]c2=O)c1 [4a] | Colon cancer cell lines | 4.55
O=C(/C=C/c1cccc(O)c1)c1cccc(-n2cc(-c3ccc(Cl)cc3)[nH]c2=O)c1 [4f] | Colon cancer cell lines | 4.68
COc1ccc(-c2cn(-c3cccc(C(=O)/C=C/c4ccc(O)c(OC)c4)c3)c(=O)[nH]2)cc1 [3b] | Colon cancer cell lines | 4.33

Let us move to another entry and its mean graph midpoint (MG_MID) of Log10 LC50.
Data request: State the recorded mean graph midpoint (MG_MID) of Log10 LC50 for this entry: COc1ccc(-c2cn(-c3cccc(C(=O)/C=C/c4cc(OC)c(OC)c(OC)c4)c3)c(=O)[nH]2)cc1 [5b]
Data returned: 5.13

###

Give measured GI50 for each item. Keep answers brief.
# Test system: SF-295 (CNS)
# Test Method Notes: NCI anticancer screen, SRB assay, 48 h
# Type: cell-based, human
# Reported Conditions: Homo sapiens, read-out: pGI50 (-log of molar concentration causing 50% inhibition of net cell growth) (converted)
One number for each entry, in nM.

Given Smiles | Measure Name | Measurement Units | Result Number
O=C(/C=C/c1cccc(O)c1)c1cccc(-n2cc(-c3ccc(Cl)cc3)[nH]c2=O)c1 | GI50 | nM | 1780
COc1cc(/C=C/C(=O)c2cccc(-n3cc(-c4ccc(Cl)cc4)[nH]c3=O)c2)ccc1O | GI50 | nM | 10500

Hello, I would appreciate it if you could give GI50 for each entry below.
1. COc1cc(/C=C/C(=O)c2cccc(-n3cc(-c4ccccc4)[nH]c3=O)c2)cc(OC)c1OC
2. COc1cc(/C=C/C(=O)c2cccc(-n3cc(-c4ccccc4)[nH]c3=O)c2)ccc1O

Data returned:
1. 1910
2. 3020
